- experiment notes: Selectivity index, ratio of CC50 for HFF cells to EC50 for bloodstream form of Trypanosoma congolense IL3000
- Format: toxicity
- test parameters: human, read-out: Ratio CC50/EC50
Measured selectivity ratio values are reported for all entries that follow.
Give only the figure.

The following compounds have reported results that may help.
INSERT INTO assay_data (chemical_smiles, reported_measurement) VALUES
  ('O=C(OCCCCCCCCCCCC[n+]1cccc2ccccc21)c1ccc(O)cc1O.[Br-]', 28.7),
  ('O=C(OCCCCCCCCCCCCCCCC[n+]1cccc2ccccc21)c1ccc(O)cc1O.[Br-]', 115);

// next item, selectivity ratio requested
q: If you can, please state the reported selectivity ratio value of O=C(OCCCCCCCCCCCCCC[P+](c1ccccc1)(c1ccccc1)c1ccccc1)c1ccc(O)cc1O.[Br-] .
a: 982

* * *

- experiment notes: Selectivity index, ratio of CC50 for HEK293T cells to EC50 for bloodstream form of Trypanosoma congolense IL3000
- Type: toxicity
- test parameters: human, read-out: Ratio CC50/EC50
Catalogue of selectivity ratio values

INSERT INTO measurements (chemical_smiles, endpoint_label, reported_measurement) VALUES
  ('O=C(OCCCCCCCCCCCCBr)c1ccc(O)cc1O', 'selectivity ratio', '> 7.7'),
  ('O=C(NO)c1ccc(OCCCCCCCC[P+](c2ccccc2)(c2ccccc2)c2ccccc2)cc1O.[Br-]', 'selectivity ratio', '> 14.7');

Okay, next one:
q: Request the reported selectivity ratio associated with O=C(NO)c1ccc(OCCCCCCCCCCCC[P+](c2ccccc2)(c2ccccc2)c2ccccc2)cc1O.[Br-]
a: > 8.6
